Numbers sourced from patent US6750228B1.

Target: MMP-2 (Homo sapiens, UniProt P08253)
Construct: made in house; provided by Dr. Gregory Goldberg, Washington University
Sequence (P08253 110-660): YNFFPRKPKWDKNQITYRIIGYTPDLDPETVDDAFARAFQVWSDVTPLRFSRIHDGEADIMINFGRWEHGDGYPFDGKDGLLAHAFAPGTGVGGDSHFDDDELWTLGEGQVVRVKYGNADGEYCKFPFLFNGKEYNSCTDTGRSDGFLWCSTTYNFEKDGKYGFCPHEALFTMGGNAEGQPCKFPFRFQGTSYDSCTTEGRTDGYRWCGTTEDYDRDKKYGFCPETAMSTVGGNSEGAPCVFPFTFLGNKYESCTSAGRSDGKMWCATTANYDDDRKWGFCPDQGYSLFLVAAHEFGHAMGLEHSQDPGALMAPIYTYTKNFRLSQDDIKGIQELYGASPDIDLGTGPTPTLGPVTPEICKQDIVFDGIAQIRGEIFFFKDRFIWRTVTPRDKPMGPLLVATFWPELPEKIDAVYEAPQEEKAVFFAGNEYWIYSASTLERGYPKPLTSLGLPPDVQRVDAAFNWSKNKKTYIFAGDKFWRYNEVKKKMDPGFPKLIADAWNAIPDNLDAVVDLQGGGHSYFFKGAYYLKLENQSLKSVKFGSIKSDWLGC
Assay: biochemical
Details: recombinant human MMP-2, MCA peptide substrate 4 μM, pH 7.5, room temperature; read-out: MMP-2 IC50
pIC50: −log10 of the molar value.
Kind request: treat 6 as inclusive, so pIC50 at 6 or higher is TRUE, anything lower is FALSE.

Challenge: I'd appreciate it if you could say whether O=C(NO)C1(S(=O)(=O)c2ccc(N3CCCC(COCc4ccc(F)cc4)C3)cc2)CCOCC1 (centres unmarked) [Example 505] has pIC50 at least equal to 6.
Response given: TRUE

Challenge: I'd appreciate it if you could say whether Cc1ccc(S(=O)(=O)N2CCN(c3ccc(S(=O)(=O)C4(C(=O)NO)CCOCC4)cc3)CC2)cc1 [Example 674] has pIC50 at least equal to 6.
Response given: TRUE

Challenge: I'd appreciate it if you could say whether Cc1ccc([N+](=O)[O-])c(OC2CCN(c3ccc(S(=O)(=O)C4(C(=O)NO)CCOCC4)cc3)CC2)c1 [Example 550] has pIC50 at least equal to 6.
Response given: FALSE

Challenge: I'd appreciate it if you could say whether COc1ccc(C(=O)C2CCN(c3ccc(S(=O)(=O)C4(C(=O)NO)CCOCC4)cc3)CC2)cc1 [Example 647] has pIC50 at least equal to 6.
Response given: TRUE

Challenge: I'd appreciate it if you could say whether O=C(CNCc1cccnc1)N1CCC(C(=O)NO)(S(=O)(=O)c2ccc(Oc3ccc(C(F)(F)F)cc3)cc2)CC1 [Example 316] has pIC50 at least equal to 6.
Response given: TRUE

Challenge: I'd appreciate it if you could say whether CN(CC1CC1)C(=O)C1CCN(c2ccc(S(=O)(=O)C3(C(=O)NO)CCSCC3)cc2)CC1 [Example 154] has pIC50 at least equal to 6.
Response given: FALSE

Challenge: I'd appreciate it if you could say whether O=C(Cc1ccc(Cl)cc1)C1CCN(c2ccc(S(=O)(=O)C3(C(=O)NO)CCOCC3)cc2)CC1 [Example 861] has pIC50 at least equal to 6.
Response given: TRUE

Challenge: I'd appreciate it if you could say whether O=C(c1cccc(C(F)(F)F)c1)C1CCN(c2ccc(S(=O)(=O)C3(C(=O)NO)CCOCC3)cc2)CC1 [Example 727] has pIC50 at least equal to 6.
Response given: TRUE

Challenge: I'd appreciate it if you could say whether O=C(NO)C1(S(=O)(=O)c2ccc(N3CCC(OCc4ccc(COCC5CCCC5)cc4)CC3)cc2)CCOCC1 [Example 605] has pIC50 at least equal to 6.
Response given: FALSE

Challenge: I'd appreciate it if you could say whether O=C(CN1CCCCC1)N1CCC(C(=O)NO)(S(=O)(=O)c2ccc(Oc3ccc(C(F)(F)F)cc3)cc2)CC1 [Example 318] has pIC50 at least equal to 6.
Response given: TRUE

Challenge: I'd appreciate it if you could say whether O=C(NO)C1(S(=O)(=O)c2ccc(Oc3ccc(OC(F)(F)F)cc3)cc2)CCN(C2=NCCN2)CC1 [Example 413] has pIC50 at least equal to 6.
Response given: TRUE

Challenge: I'd appreciate it if you could say whether COc1ccc(S(=O)(=O)N2CCN(c3ccc(S(=O)(=O)C4(C(=O)NO)CCOCC4)cc3)CC2)cc1OC [Example 683] has pIC50 at least equal to 6.
Response given: TRUE

Challenge: I'd appreciate it if you could say whether CCOc1ccc(C(=O)C2CCN(c3ccc(S(=O)(=O)C4(C(=O)NO)CCN(C5CC5)CC4)cc3)CC2)cc1 [Example 376] has pIC50 at least equal to 6.
Response given: TRUE

Challenge: I'd appreciate it if you could say whether CO[C@@H]1CCN(c2ccc(S(=O)(=O)C3(C(=O)NO)CCOCC3)cc2)C1 [Example 533] has pIC50 at least equal to 6.
Response given: TRUE

Challenge: I'd appreciate it if you could say whether CC1CC(C)CN(C(=O)C2CCN(c3ccc(S(=O)(=O)C4(C(=O)NO)CCN(C(=O)Cn5cncn5)CC4)cc3)CC2)C1 (centres unmarked) [Example 311] has pIC50 at least equal to 6.
Response given: FALSE

Challenge: I'd appreciate it if you could say whether CC1CC(C)CN(C(=O)C2CCN(c3ccc(S(=O)(=O)C4(C(=O)NO)CCN(C(C)C)CC4)cc3)CC2)C1 (centres unmarked) [Example 458] has pIC50 at least equal to 6.
Response given: FALSE

Challenge: I'd appreciate it if you could say whether O=C(NO)C1(S(=O)(=O)c2ccc(N3CC=C(c4ccccc4)CC3)cc2)CCOCC1 [Example 587] has pIC50 at least equal to 6.
Response given: TRUE

Challenge: I'd appreciate it if you could say whether COc1ccc(C(=O)C2CCN(c3ccc(S(=O)(=O)C4(C(=O)NO)CCN(C5CC5)CC4)cc3)CC2)cc1 [Example 441] has pIC50 at least equal to 6.
Response given: TRUE

Challenge: I'd appreciate it if you could say whether O=C(NO)C1(S(=O)(=O)c2ccc(N3CCC(OCc4ccc(COCCF)cc4)CC3)cc2)CCOCC1 [Example 606] has pIC50 at least equal to 6.
Response given: TRUE

----------
Molecular target: MMP-13 (Homo sapiens)
Construct: made in house; host or cells: baculovirus / insect cells
Assay: biochemical
Settings: recombinant human MMP-13, MCA peptide substrate 4 μM, pH 7.5, room temperature; read-out: MMP-13 IC50
Provide the recorded pIC50 for the entries that follow.
# pIC50 is unitless: minus log10 of the molar concentration; print number only

Challenge: Lab note: need pIC50 with MMP-13 (Homo sapiens) for entry COc1ccccc1C(=O)C1CCN(c2ccc(S(=O)(=O)C3(C(=O)NO)CCOCC3)cc2)CC1 , please look it up.
Response given: 7.43

Challenge: Lab note: need pIC50 with MMP-13 (Homo sapiens) for entry C#CCN1CCC(C(=O)NO)(S(=O)(=O)c2ccc(Oc3ccc(OC(F)(F)F)cc3)cc2)CC1 , please look it up.
Response given: 9.70

Challenge: Lab note: need pIC50 with MMP-13 (Homo sapiens) for entry O=C(NO)C1(S(=O)(=O)c2ccc(OC3CCC(OCc4cccc(OC(F)(F)F)c4)C3)cc2)CCOCC1 (stereo not drawn) , please look it up.
Response given: 7.54

Challenge: Lab note: need pIC50 with MMP-13 (Homo sapiens) for entry O=C(Nc1ccc(C(F)(F)F)cc1)N1CCC(C(=O)NO)(S(=O)(=O)c2ccc(Oc3ccc(OC(F)(F)F)cc3)cc2)CC1 , please look it up.
Response given: 7.89

Challenge: Lab note: need pIC50 with MMP-13 (Homo sapiens) for entry O=C(c1ccc(OC(F)(F)F)cc1)N1CCC(C(=O)NO)(S(=O)(=O)c2ccc(Oc3ccc(C(F)(F)F)cc3)cc2)CC1 , please look it up.
Response given: 7.94

Challenge: Lab note: need pIC50 with MMP-13 (Homo sapiens) for entry COc1ccc(C(=O)C2CCN(c3ccc(S(=O)(=O)C4(C(=O)NO)CCOCC4)cc3)CC2)cc1F , please look it up.
Response given: 8.05

Challenge: Lab note: need pIC50 with MMP-13 (Homo sapiens) for entry CC1CC(C)CN(C(=O)C2CCN(c3ccc(S(=O)(=O)C4(C(=O)NO)CCN(C(=O)CNCc5ccncc5)CC4)cc3)CC2)C1 (stereo not drawn) , please look it up.
Response given: 7.71

Challenge: Lab note: need pIC50 with MMP-13 (Homo sapiens) for entry CCCCC(=O)N1CCN(c2ccc(S(=O)(=O)C3(C(=O)NO)CCOCC3)cc2)CC1 , please look it up.
Response given: 7.15

Challenge: Lab note: need pIC50 with MMP-13 (Homo sapiens) for entry CC(=O)Nc1ccc(Oc2ccc(S(=O)(=O)C3(C(=O)NO)CCN(C4CC4)CC3)cc2)cc1 , please look it up.
Response given: 8.77

Challenge: Lab note: need pIC50 with MMP-13 (Homo sapiens) for entry O=C(Nc1ccc(Cl)c(Cl)c1)N1CCC(C(=O)NO)(S(=O)(=O)c2ccc(Oc3ccc(OC(F)(F)F)cc3)cc2)CC1 , please look it up.
Response given: 7.46

Challenge: Lab note: need pIC50 with MMP-13 (Homo sapiens) for entry COCCN1CCC(C(=O)NO)(S(=O)(=O)c2ccc(N3CCC(OCc4ccc(Cl)cc4)CC3)cc2)CC1 , please look it up.
Response given: 7.05

Challenge: Lab note: need pIC50 with MMP-13 (Homo sapiens) for entry O=C(NO)C1(S(=O)(=O)c2ccc(N3CCC(Oc4ccc5c(c4)OCO5)CC3)cc2)CCOCC1 , please look it up.
Response given: 8.80

----------
Target: MMP-1 (Homo sapiens, UniProt P03956)
Construct: made in house; host or cells: transfected HT-1080 cells (provided by Dr. Harold Welgus, Washington University)
Sequence (P03956 100-469): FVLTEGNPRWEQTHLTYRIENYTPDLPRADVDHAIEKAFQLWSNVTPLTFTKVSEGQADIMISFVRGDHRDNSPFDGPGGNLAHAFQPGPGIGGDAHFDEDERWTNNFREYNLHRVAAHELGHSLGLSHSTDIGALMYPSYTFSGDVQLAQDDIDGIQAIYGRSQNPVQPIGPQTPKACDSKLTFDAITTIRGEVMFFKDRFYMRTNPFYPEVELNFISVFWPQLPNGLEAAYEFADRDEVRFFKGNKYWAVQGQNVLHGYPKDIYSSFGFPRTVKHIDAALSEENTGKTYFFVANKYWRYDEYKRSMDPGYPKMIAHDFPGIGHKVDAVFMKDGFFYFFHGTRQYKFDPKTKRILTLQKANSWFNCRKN
Experiment: biochemical
Settings: recombinant human MMP-1, MCA peptide substrate 4 μM, pH 7.5, room temperature; read-out: MMP-1 IC50
pIC50: −log10 of the molar value.
OBSERVABLE: pIC50

Challenge: # lookup: pIC50 of O=C(NO)C1(S(=O)(=O)c2ccc(N3CCC(Oc4ccc(Cl)cc4F)CC3)cc2)CCOCC1
Response given: < 5.00

Challenge: # lookup: pIC50 of CC1CC(C)CN(C(=O)C2CCN(c3ccc(S(=O)(=O)C4(C(=O)NO)CCN(C(=O)CN5CCN(CCN6CCOCC6)CC5)CC4)cc3)CC2)C1 (centres unmarked)
Response given: < 5.00

Challenge: # lookup: pIC50 of COc1ccccc1NC(=O)N1CCC(C(=O)NO)(S(=O)(=O)c2ccc(Oc3ccc(OC(F)(F)F)cc3)cc2)CC1
Response given: < 5.00

Challenge: # lookup: pIC50 of O=C(NO)C1(S(=O)(=O)c2ccc(N3CCC(Oc4ccc([N+](=O)[O-])cc4)CC3)cc2)CCOCC1
Response given: < 5.00

Challenge: # lookup: pIC50 of O=C(NO)C1(S(=O)(=O)c2ccc(N3CCC(S(=O)(=O)c4ccccc4)CC3)cc2)CCN(C2CC2)CC1
Response given: < 5.00

Challenge: # lookup: pIC50 of O=C(NO)C1(S(=O)(=O)c2ccc(N3CCC(OCc4ccc(F)cc4F)CC3)cc2)CCOCC1
Response given: < 5.00

Challenge: # lookup: pIC50 of O=C(NO)C1(S(=O)(=O)c2ccc(N3CCC(Oc4ccc(C(F)(F)F)cc4[N+](=O)[O-])CC3)cc2)CCOCC1
Response given: < 5.00

Challenge: # lookup: pIC50 of O=C(NO)C1(S(=O)(=O)c2ccc(N3CCC(OCc4ccccc4C(F)(F)F)CC3)cc2)CCOCC1
Response given: < 5.00
